# System: HCT116
# condition-notes: 72 h; ICRF193 200 nM
Where a name gives a salt, the structure may show the parent alone.
property: IC50 cell viability

molecule="COc1ccc2c(c1)C(=O)N(CCc1ccc(S(=O)(=O)NC(=O)NC3CCCCC3)cc1)C(=O)C2(C)C [Gliquidone]" property="IC50 cell viability" observed_value="> 45.8 µM"
molecule="C[C@]12CC[C@@H]3c4ccc(OC(=O)c5ccccc5)cc4CC[C@H]3[C@@H]1CC[C@@H]2O [ESTRADIOL BENZOATE]" property="IC50 cell viability" observed_value="> 45.8 µM"
molecule="O=C(CCCN1CCC(n2c(=S)[nH]c3ccccc32)CC1)c1ccc(F)cc1 [Timiperone]" property="IC50 cell viability" observed_value="18.3 µM"
molecule="Cc1oc(=O)oc1COC(=O)[C@@H]1N2C(=O)[C@@H](NC(=O)[C@H](N)c3ccccc3)[C@H]2SC1(C)C [Lenampicillin hydrochloride]" property="IC50 cell viability" observed_value="> 45.8 µM"
molecule="COc1cccc(C(=O)CCN[C@@H](C)[C@H](O)c2ccccc2)c1 [l-Oxyfedrine hydrochloride]" property="IC50 cell viability" observed_value="> 45.8 µM"
molecule="CC(=O)O[C@]1(C(C)=O)CC[C@H]2[C@@H]3C=C(C)C4=CC(=O)CC[C@@H]4[C@H]3CC[C@@]21C [Nomegestrol acetate]" property="IC50 cell viability" observed_value="> 45.8 µM"
molecule="COC(=O)[C@H]1[C@H]2C[C@@H]3c4[nH]c5cc(OC)ccc5c4CCN3C[C@H]2C[C@@H](OC(=O)/C=C/c2ccc(O)c(OC)c2)[C@@H]1OC [Rescimetol]" property="IC50 cell viability" observed_value="29.1 µM"
molecule="O=C(OCc1ccccc1)c1ccc(O)cc1 [Benzylparaben]" property="IC50 cell viability" observed_value="> 45.8 µM"
molecule="O=C1OC(c2ccc(O)cc2)(c2ccc(O)cc2)c2ccccc21 [Phenolphthalein]" property="IC50 cell viability" observed_value="> 45.8 µM"
molecule="CC[C@H]1OC(=O)[C@H](C)[C@@H](O[C@H]2C[C@@](C)(OC)[C@@H](O)[C@H](C)O2)[C@H](C)[C@@H](O[C@@H]2O[C@H](C)C[C@H](N(C)C)[C@H]2O)[C@](C)(O)C[C@@H](C)CN(C)[C@H](C)[C@@H](O)[C@]1(C)O [Azithromycin]" property="IC50 cell viability" observed_value="20.6 µM"
molecule="CC(COc1ccc(Oc2ccccc2)cc1)Oc1ccccn1 (configuration not stated) [Pyriproxyfen]" property="IC50 cell viability" observed_value="> 45.8 µM"
molecule="O=C(O)c1cc2ccccc2c(Cc2c([O-])c(C(=O)O)cc3ccccc23)c1[O-].[Na+].[Na+] [Pamoic acid disodium salt]" property="IC50 cell viability" observed_value="> 45.8 µM"
molecule="O=C(CCCN1CCC(C(=O)c2ccc(F)cc2)CC1)c1ccc(F)cc1 [Lenperone Hydrochloride]" property="IC50 cell viability" observed_value="> 45.8 µM"
molecule="COc1cc2c(cc1OC)C(=O)C(CC1CCN(Cc3ccccc3)CC1)C2 (configuration not stated) [Donepezil hydrochloride]" property="IC50 cell viability" observed_value="> 45.8 µM"
molecule="CC(=O)Nc1ccccc1 [Acetanilide]" property="IC50 cell viability" observed_value="> 45.8 µM"
molecule="COc1cc(C)c(/C=C/C(C)=C/C=C/C(C)=C/C(=O)O)c(C)c1C [Acitretin]" property="IC50 cell viability" observed_value="> 45.8 µM"
molecule="OC(CCN1CCCC1)(c1ccccc1)C1CCCCC1 (configuration not stated) [Procyclidine hydrochloride]" property="IC50 cell viability" observed_value="> 45.8 µM"
molecule="CCC(CC)[C@H](NC(C)=O)[C@@H]1[C@H](O)[C@@H](C(=O)O)C[C@H]1NC(=N)N [Peramivir]" property="IC50 cell viability" observed_value="> 45.8 µM"
molecule="Oc1c(I)cc(I)c2cccnc12 [Iodoquinol]" property="IC50 cell viability" observed_value="10.3 µM"
molecule="c1ccc2c(c1)Sc1ccccc1N2CC1CN2CCC1CC2 (configuration not stated) [Mequitazine]" property="IC50 cell viability" observed_value="20.6 µM"
molecule="OC[C@@H](O)[C@@H](O[C@@H]1O[C@H](CO)[C@H](O)[C@H](O)[C@H]1O)[C@H](O)[C@@H](O)CO [Lactitol]" property="IC50 cell viability" observed_value="> 45.8 µM"
molecule="CC(C)c1c(C(=O)Nc2ccccc2)c(-c2ccccc2)c(-c2ccc(F)cc2)n1CC[C@@H](O)C[C@@H](O)CC(=O)O [Atorvastatin calcium]" property="IC50 cell viability" observed_value="18.3 µM"
molecule="CCCCCCCC(=O)CC[C@@H]1[C@@H](C/C=C\\CCCC(=O)OC(C)C)[C@@H](O)C[C@H]1O [Unoprostone isopropyl ester]" property="IC50 cell viability" observed_value="18.3 µM"
molecule="COc1ccc2cc1Oc1cc3c(cc1OC)CC[N+](C)(C)[C@H]3Cc1ccc(cc1)Oc1c(OC)c(OC)cc3c1[C@@H](C2)[N+](C)(C)CC3 [Metocurine iodide]" property="IC50 cell viability" observed_value="> 45.8 µM"
molecule="CC(=O)O[C@H]1C[C@H](O[C@H]2[C@@H](O)C[C@H](O[C@H]3[C@@H](O)C[C@H](O[C@H]4CC[C@@]5(C)[C@H](CC[C@@H]6[C@@H]5CC[C@]5(C)[C@@H](C7=CC(=O)OC7)CC[C@]65O)C4)O[C@@H]3C)O[C@@H]2C)O[C@H](C)[C@H]1O [Digitoxin 3'''-Acetate]" property="IC50 cell viability" observed_value="0.116 µM"
molecule="CC1=C(/C=C/C(C)=C/C=C/C(C)=C/C(=O)Oc2c(C)c(C)c3c(c2C)CCC(C)(CCCC(C)CCCC(C)CCCC(C)C)O3)C(C)(C)CCC1 (configuration not stated) [Tocoretinate]" property="IC50 cell viability" observed_value="> 45.8 µM"
molecule="CCOc1nc2cccc(C(=O)OCc3oc(=O)oc3C)c2n1Cc1ccc(-c2ccccc2-c2noc(=O)[nH]2)cc1 [Azilsartan Medoxomil]" property="IC50 cell viability" observed_value="> 45.8 µM"
